Values from ChEMBL document CHEMBL1126373

test.target: Human immunodeficiency virus type 1 reverse transcriptase (Human immunodeficiency virus 1) (UniProt Q72547)
protocol.text: Inhibition against HIV- reverse transcriptase in cell culture at 20 ug/mL
Label fulfilled when inhibition is at or above 5%; otherwise label not fulfilled.

Check out these entries, answers already filled in.
O=C(OC[C@@H]1O[C@@H](OC(=O)c2cc(O)c(O)c(O)c2)[C@@H](OC(=O)c2cc(O)c(O)c(O)c2)[C@@H](OC(=O)c2cc(O)c(O)c(O)c2)[C@@H]1OC(=O)c1cc(O)c(O)c(O)c1Oc1cc2c(c(O)c1O)-c1c(cc(O)c(O)c1O)C(=O)OC[C@@H]1O[C@@H](OC(=O)c3cc(O)c(O)c(O)c3)[C@@H](OC(=O)c3cc(O)c(O)c(O)c3)[C@@H](OC(=O)c3cc(O)c(O)c(O)c3)[C@@H]1OC2=O)c1cc(O)c(O)c(O)c1 = not fulfilled
O=C(OC[C@H]1O[C@@H](OC(=O)c2cc(O)c(O)c(O)c2)[C@H](OC(=O)c2cc(O)c(O)c(O)c2)[C@@H](OC(=O)c2cc(O)c(O)c(O)c2)[C@@H]1OC(=O)c1cc(O)c(O)c(O)c1)c1cc(O)c(O)c(O)c1 (stereo in doubt; 10) = not fulfilled
O=C(/C=C/c1ccc(O)c2c1[C@H](C(=O)O[C@H](Cc1ccc(O)c(O)c1)C(=O)O)[C@@H](c1ccc(O)c(O)c1)O2)O[C@H](Cc1ccc(O)c(O)c1)C(=O)O [MAGNESIUM LITHOSPERMATE B] = fulfilled

## Input Does inhibition meet or surpass 5% for O=C(OC[C@H]1O[C@@H](OC(=O)c2cc(O)c(O)c(O)c2)[C@H](OC(=O)c2cc(O)c(O)c(O)c2)[C@@H](OC(=O)c2cc(O)c(O)c(O)c2)[C@@H]1OC(=O)c1cc(O)c(O)c(O)c1)c1cc(O)c(O)c(O)c1 (stereo in doubt; 11) ?
## Output not fulfilled

## Input Reported inhibition reaches at least 5% for O=C1OCC2OC(=O)c3cc(O)c(O)c(O)c3-c3c(O)c(O)c(O)c4c3C(=O)OC(C2OC(=O)c2cc(O)c(O)c(O)c2-c2c1cc(O)c(O)c2O)C1OC(=O)C2C4=C(O)C(=O)C23Oc2cc(O)c4c(c2[C@H]13)O[C@H](c1ccc(O)c(O)c1)[C@@H](O)C4 (some centres undefined) ?
## Output fulfilled

## Input Given "O=C(OC[C@H]1O[C@@H](OC(=O)c2cc(O)c(O)c(O)c2)[C@H](O)[C@@H](O)[C@@H]1O)c1cc(O)c(O)c(O)c1" , state whether its inhibition is at least 5%.
## Output fulfilled

## Input Hello, I need to know if "O=C(O[C@H]1[C@H](O)C[C@](O)(C(=O)O)C[C@H]1O)c1cc(O)c(O)c(O)c1" has measured inhibition not below 5%. Thanks!
## Output not fulfilled

## Input Entry O=C1OCC2OC(=O)c3cc(O)c(O)c(O)c3-c3c(O)c(O)c(O)c4c3C(=O)OC(C2OC(=O)c2cc(O)c(O)c(O)c2-c2c1cc(O)c(O)c2O)C1OC(=O)c2c-4c(O)c(O)c(O)c2[C@@H]1O (some centres undefined) : is its inhibition no less than 5%?
## Output fulfilled

* * *

Test system: Human immunodeficiency virus 1
protocol.text: Anti-HIV activity in cell culture assay expressed as IC50 values.
Type: functional, organism-based
settings: Human immunodeficiency virus 1
observable: IC50 (µM)
Please respond with the number in µM and leave the unit unwritten.

O=C(OC[C@H]1OC(O)[C@@](O)(COC(=O)c2cc(O)c(O)c(O)c2)[C@@H]1OC(=O)c1cc(O)c(O)c(O)c1)c1cc(O)c(O)c(O)c1 (stereo partly specified) = 40
O=C(O[C@@H]1O[C@@H]2COC(=O)c3cc(O)c(O)c(O)c3-c3c(cc(O)c(O)c3O)C(=O)O[C@H]([C@H]1OC(=O)c1cc(O)c(O)c(O)c1)[C@@H]2OC(=O)c1cc(O)c(O)c(O)c1)c1cc(O)c(O)c(O)c1 [PUNICAFOLIN] = 34
O=C(O[C@@H]1O[C@H]2COC(=O)c3cc(O)c(O)c(O)c3-c3c(O)c(O)c(O)c(Oc4cc(C(=O)O[C@H]5O[C@H]6COC(=O)c7cc(O)c(O)c(O)c7-c7c(cc(O)c(O)c7O)C(=O)O[C@H]6[C@@H]6OC(=O)c7cc(O)c(O)c(O)c7-c7c(cc(O)c(O)c7O)C(=O)O[C@H]56)cc(O)c4O)c3C(=O)O[C@H]2[C@@H]2OC(=O)c3cc(O)c(O)c(O)c3-c3c(cc(O)c(O)c3O)C(=O)O[C@H]12)c1cc(O)c(O)c(O)c1 = 21

## Input API: value(readout=IC50, system=Human immunodeficiency virus 1) for record "O=C(O[C@H]1[C@H](O)C[C@](O)(C(=O)O)C[C@H]1O)c1cc(O)c(O)c(O)c1"
## Output 80

## Input // lookup IC50 | system=Human immunodeficiency virus 1 | key= O=C(O[C@@H]1O[C@@H]2COC(=O)c3cc(O)c(O)c(O)c3-c3c(cc(O)c(O)c3O)C(=O)O[C@H]([C@H]1O)[C@@H]2O)c1cc(O)c(O)c(O)c1 [CORILAGIN]
## Output 15

## Input Item "O=C(OC[C@H]1O[C@@H](OC(=O)c2cc(O)c(O)c(O)c2)[C@H](OC(=O)c2cc(O)c(O)c(O)c2)[C@@H](O)[C@@H]1O)c1cc(O)c(O)c(O)c1" with Human immunodeficiency virus 1 - IC50?
## Output 19

* * *

test.target: Human immunodeficiency virus type 1 reverse transcriptase (Human immunodeficiency virus 1)
protocol.text: Inhibition against HIV- reverse transcriptase in cell culture at 20 ug/mL
observable: inhibition (%)
Only the number, expressed in %, is required.

Example entries begin here.
Oc1cc(O)c2c(c1)O[C@H](c1ccc(O)c(O)c1)[C@H](O)[C@H]2c1c(O)cc(O)c2c1O[C@@]1(c3ccc(O)c(O)c3)Oc3cc(O)c4c(c3[C@@H]2[C@H]1O)O[C@H](c1ccc(O)c(O)c1)[C@H](O)[C@H]4c1c(O)cc(O)c2c1O[C@H](c1ccc(O)c(O)c1)[C@H](O)C2 [CINNAMTANNIN B2] = 19
O=C(O[C@@H]1[C@@H](c2c(O)cc(O)c3c2O[C@H](c2ccc(O)c(O)c2)[C@H](OC(=O)c2cc(O)c(O)c(O)c2)C3)c2c(O)cc(O)c([C@H]3c4c(O)cc(O)cc4O[C@H](c4ccc(O)c(O)c4)[C@@H]3OC(=O)c3cc(O)c(O)c(O)c3)c2O[C@@H]1c1ccc(O)c(O)c1)c1cc(O)c(O)c(O)c1 = 13
O=C(O[C@@H]1O[C@H](CO)[C@@H](O)[C@H](O)[C@H]1O)c1cc(O)c(O)c(O)c1 = 18
O=C(O)C1=C[C@@H](O)[C@@H](O)[C@H](OC(=O)c2cc(O)c(O)c(O)c2)C1 = 0

Field: next molecule
## Input Endpoint output: inhibition of Oc1cc(O)c2c(c1)O[C@H](c1ccc(O)c(O)c1)[C@H](O)[C@H]2c1c(O)cc(O)c2c1O[C@H](c1ccc(O)c(O)c1)[C@H](O)C2 [PROCYANIDIN B2] . Value?
## Output 21

* * *

# inhibition annotations
test.target: Human immunodeficiency virus type 1 reverse transcriptase (Human immunodeficiency virus 1)
protocol.text: Inhibition against HIV- reverse transcriptase in cell culture at 20 ug/mL
Record the result as number plus unit.

Please review the entries below; each comes with its answer.
O=C1c2c(O)cc(O)cc2O[C@H](c2ccc(O)c(O)c2)[C@H]1O [(+)-TAXIFOLIN] = 22%
O=C1O[C@H]2[C@@H]3OC(=O)c4cc(O)c(O)c(O)c4-c4c(cc(O)c(O)c4O)C(=O)OC[C@H]2O[C@@H](OC(=O)c2cc(O)c(O)c(O)c2)[C@@H]3OC(=O)c2cc(O)c(O)c3c2[C@@H]2C1=CC(=O)C(O)(O)C2(O)O3 (stereo not given in full) = 15%
O=C1OCC2OC(=O)c3cc(O)c(O)c(O)c3-c3c(O)c(O)c(O)c4c3C(=O)OC(C2OC(=O)c2cc(O)c(O)c(O)c2-c2c1cc(O)c(O)c2O)C1OC(=O)c2c-4c(O)c(O)c(O)c2[C@@H]1c1c(O)cc(O)c2c1O[C@H](c1ccc(O)c(O)c1)[C@@H](O)C2 (stereo not given in full) = 24%

## Input What value of inhibition has been recorded for this entry: Oc1cc(O)c2c(c1)O[C@@]1(c3ccc(O)c(O)c3)Oc3cc(O)c4c(c3[C@@H]2[C@H]1O)O[C@H](c1ccc(O)c(O)c1)[C@H](O)C4 [PROANTHOCYANIDIN A2]
## Output 18%

## Input Entry CC1(C)CC[C@]2(C(=O)O)CC[C@]3(C)C(=CCC4[C@@]5(C)C[C@@H](O)[C@@H]6OC(=O)c7cc(O)c(O)c(O)c7-c7c(cc(O)c(O)c7O)C(=O)OC[C@@]6(CO)C5CC[C@]43C)C2C1 (stereo not given in full) has what inhibition?
## Output 18%
